- system_under_test: T1, recombinant hMCAM-His (human, UniProt P43121 24-559)
- T1 construct: not shown: His tag
- T1 chain: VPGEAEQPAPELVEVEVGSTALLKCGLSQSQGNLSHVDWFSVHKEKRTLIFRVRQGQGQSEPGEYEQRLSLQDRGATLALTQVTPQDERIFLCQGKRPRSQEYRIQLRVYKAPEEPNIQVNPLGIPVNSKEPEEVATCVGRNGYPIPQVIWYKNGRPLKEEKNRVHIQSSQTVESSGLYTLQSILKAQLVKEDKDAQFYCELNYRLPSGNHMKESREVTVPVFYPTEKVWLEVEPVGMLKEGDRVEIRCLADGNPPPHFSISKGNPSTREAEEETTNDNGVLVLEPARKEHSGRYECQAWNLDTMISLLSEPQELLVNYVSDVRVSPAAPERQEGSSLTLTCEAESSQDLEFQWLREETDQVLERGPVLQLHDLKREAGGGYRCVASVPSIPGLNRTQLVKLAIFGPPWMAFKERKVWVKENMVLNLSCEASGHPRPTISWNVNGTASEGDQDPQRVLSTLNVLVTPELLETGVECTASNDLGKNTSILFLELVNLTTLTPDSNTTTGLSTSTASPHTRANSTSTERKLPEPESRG
- test_details: ForteBio Octet Red, hMCAM-His analyte; Forte column 1; vs rodent 2107
Recorded fold over rodent (Forte affinity) split into classes 1 = under 5 fold, 2 = from 5 fold up to 20 fold, 3 = 20 fold and over

binder	assigned_class
h2107_VH5 + h2107_VL1 (antibody, human IgG1, V domains shown) VH: QVTLKESGPVLVKPTETLTLTCTVSGFSLTSQGVSWVRQPPGKALEWIAAISSGGSTYYNSAFKSRLTISPDTSKSQVVLTMTNMDPVDTATYYCARHRPFYFDYWGQGTLVTVSS VL: DIQMTQSPSSLSASVGDRVTITCKGSQNIYKSLAWFQQKPGKVPKLLIYDANSLQTGIPSRFSGSGSGTDFTLTISSLQPEDVATYYCQQYYSGYTFGGGTKVEIK	3
h2107_VH1 + h2107_VL2 (antibody, human IgG1, V domains shown, also called VH1VL2) VH: QVTLKESGPVLVKPTETLTLTCTVSGFSLTSNGVSWVRQPPGKALEWIAAISSGGSTYYNSAFKSRLTISRDTSKSQVVLTMTNMDPVDTATYYCARHRPFYFDYWGQGTLVTVSS VL: DIQMTQSPSSLSASVGDRVTITCKGSQNIYKSLAWFQLKPGKVPKLLIYDANSLQTGIPSRFSGSGSGTDFTLTISSLQPEDVATYYCQQYYSGYTFGGGTKVEIK	1
h2107_VH1 + h2107_VL1 (antibody, human IgG1, V domains shown) VH: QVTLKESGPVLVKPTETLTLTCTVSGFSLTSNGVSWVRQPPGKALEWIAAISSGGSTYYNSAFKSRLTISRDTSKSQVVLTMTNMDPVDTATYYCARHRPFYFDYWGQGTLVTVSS VL: DIQMTQSPSSLSASVGDRVTITCKGSQNIYKSLAWFQQKPGKVPKLLIYDANSLQTGIPSRFSGSGSGTDFTLTISSLQPEDVATYYCQQYYSGYTFGGGTKVEIK	2
h2107_VH5 + h2107_VL3 (antibody, human IgG1, V domains shown) VH: QVTLKESGPVLVKPTETLTLTCTVSGFSLTSQGVSWVRQPPGKALEWIAAISSGGSTYYNSAFKSRLTISPDTSKSQVVLTMTNMDPVDTATYYCARHRPFYFDYWGQGTLVTVSS VL: DIQMTQSPSSLSASVGDRVTINCKGSQNIYKSLAWFQQKPGKVPKLLIYDANSLQTGIPSRFSGSGSGTDFTLTISSLQPEDVATYYCQQYYSGYTFGGGTKVEIK	3
h2107_VH5 + h2107_VL2 (antibody, human IgG1, V domains shown) VH: QVTLKESGPVLVKPTETLTLTCTVSGFSLTSQGVSWVRQPPGKALEWIAAISSGGSTYYNSAFKSRLTISPDTSKSQVVLTMTNMDPVDTATYYCARHRPFYFDYWGQGTLVTVSS VL: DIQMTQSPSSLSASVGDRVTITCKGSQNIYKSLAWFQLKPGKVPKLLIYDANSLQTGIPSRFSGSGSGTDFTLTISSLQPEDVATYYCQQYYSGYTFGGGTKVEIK	2
h2107_VH6 + h2107_VL2 (antibody, human IgG1, V domains shown) VH: QVTLKESGPVLVKPTETLTLTCTVSGFSLTSNAVSWVRQPPGKALEWIAAISSGGSTYYNSAFKSRLTISRDTSKSQVVLTMTNMDPVDTATYYCARHRPFYFDYWGQGTLVTVSS VL: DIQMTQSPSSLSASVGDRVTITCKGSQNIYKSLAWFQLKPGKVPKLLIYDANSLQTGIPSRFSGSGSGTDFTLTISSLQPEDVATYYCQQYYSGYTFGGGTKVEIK	2
rat anti-human MCAM monoclonal antibody clone 2107.4.10 (antibody, V domains shown, rat hybridoma antibody; elsewhere '83 or 84'); also called rodent 2107; murine 2107.4.10.18 anti-MCAM antibody) VH: QVQLKESGPGLVQSSQTLSLTCTVSGFSLTSNGVSWVRQPPGKGLEWIAAISSGGSTYYNSAFKSRLSISRNTSKSQVLLKMNSLQTEDTGMYFCARHRPFYFDYWGQGVMVTVSS VL: DIQVTQSPSLLSASVGDRVTLNCKGSQNIYKSLAWFRLKRGEAPKLLIYDANSLQTGIPSRFSGSGSGTDFTLTITSLQPEDVATYFCQQYYSGYTFGAGTKLELK	1
h2107_VH6 + h2107_VL3 (antibody, human IgG1, V domains shown) VH: QVTLKESGPVLVKPTETLTLTCTVSGFSLTSNAVSWVRQPPGKALEWIAAISSGGSTYYNSAFKSRLTISRDTSKSQVVLTMTNMDPVDTATYYCARHRPFYFDYWGQGTLVTVSS VL: DIQMTQSPSSLSASVGDRVTINCKGSQNIYKSLAWFQQKPGKVPKLLIYDANSLQTGIPSRFSGSGSGTDFTLTISSLQPEDVATYYCQQYYSGYTFGGGTKVEIK	3
h2107_VH1 + h2107_VL3 (antibody, human IgG1, V domains shown) VH: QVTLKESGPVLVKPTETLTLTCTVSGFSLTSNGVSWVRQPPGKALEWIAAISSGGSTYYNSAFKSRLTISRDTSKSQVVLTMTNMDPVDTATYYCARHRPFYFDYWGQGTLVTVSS VL: DIQMTQSPSSLSASVGDRVTINCKGSQNIYKSLAWFQQKPGKVPKLLIYDANSLQTGIPSRFSGSGSGTDFTLTISSLQPEDVATYYCQQYYSGYTFGGGTKVEIK	2
h2107_VH6 + h2107_VL1 (antibody, human IgG1, V domains shown) VH: QVTLKESGPVLVKPTETLTLTCTVSGFSLTSNAVSWVRQPPGKALEWIAAISSGGSTYYNSAFKSRLTISRDTSKSQVVLTMTNMDPVDTATYYCARHRPFYFDYWGQGTLVTVSS VL: DIQMTQSPSSLSASVGDRVTITCKGSQNIYKSLAWFQQKPGKVPKLLIYDANSLQTGIPSRFSGSGSGTDFTLTISSLQPEDVATYYCQQYYSGYTFGGGTKVEIK	3
h2107_VH2 + h2107_VL2 (antibody, human IgG1, V domains shown, also called h2107VH2VL2; VH2VL2) VH: QVTLKESGPVLVKPTETLTLTCTVSGFSLTSNGVSWVRQPPGKALEWIAAISSGGSTYYNSAFKSRLSISRDTSKSQVVLTMTNMDPVDTATYYCARHRPFYFDYWGQGTLVTVSS VL: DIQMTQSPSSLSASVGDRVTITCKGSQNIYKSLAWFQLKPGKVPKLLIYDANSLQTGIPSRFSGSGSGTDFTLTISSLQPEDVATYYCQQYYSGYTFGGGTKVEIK	1
